Below, each of the binders is paired with its reported Neutralization IC50, H7-NLD03 value.
assayedSystem: HA of ca A/Netherlands/219/03 (H7N7) virus (influenza A virus)
test: cell-based or functional assay
Quick note: give the figure in µg/mL, leave out the unit.

Use these answered entries as a reference point.
Antibody 8 (antibody, V domains shown) VH: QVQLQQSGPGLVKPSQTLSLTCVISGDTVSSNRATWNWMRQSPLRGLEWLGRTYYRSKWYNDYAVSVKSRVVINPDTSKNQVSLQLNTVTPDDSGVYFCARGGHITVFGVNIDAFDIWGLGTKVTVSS VL: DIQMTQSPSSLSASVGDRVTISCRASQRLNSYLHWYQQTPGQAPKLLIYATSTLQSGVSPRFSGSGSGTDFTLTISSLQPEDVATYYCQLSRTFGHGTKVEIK; 12.8
Antibody 10 (antibody, V domains shown) VH: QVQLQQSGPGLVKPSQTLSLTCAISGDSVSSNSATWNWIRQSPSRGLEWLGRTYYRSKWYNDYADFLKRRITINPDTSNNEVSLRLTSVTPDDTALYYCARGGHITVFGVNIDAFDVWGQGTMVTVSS VL: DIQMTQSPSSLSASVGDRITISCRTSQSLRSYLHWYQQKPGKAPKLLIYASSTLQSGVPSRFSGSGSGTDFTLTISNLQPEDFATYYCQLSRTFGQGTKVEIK; 3.8
Antibody 3 (antibody, V domains shown) VH: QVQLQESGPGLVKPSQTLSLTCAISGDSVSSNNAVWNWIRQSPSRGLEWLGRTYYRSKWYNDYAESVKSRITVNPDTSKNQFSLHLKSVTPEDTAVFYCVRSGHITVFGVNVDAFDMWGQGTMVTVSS VL: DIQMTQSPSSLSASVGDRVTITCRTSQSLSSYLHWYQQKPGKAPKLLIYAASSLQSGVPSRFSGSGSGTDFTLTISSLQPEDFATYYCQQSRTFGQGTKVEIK; 4.78

Moving on to the next binder.
IN: Indicate its recorded Neutralization IC50, H7-NLD03; the binder in question is Antibody 5 (antibody, V domains shown) VH: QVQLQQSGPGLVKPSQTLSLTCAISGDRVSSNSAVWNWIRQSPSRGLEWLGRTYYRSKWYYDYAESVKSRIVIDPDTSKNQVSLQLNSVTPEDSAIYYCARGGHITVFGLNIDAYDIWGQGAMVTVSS VL: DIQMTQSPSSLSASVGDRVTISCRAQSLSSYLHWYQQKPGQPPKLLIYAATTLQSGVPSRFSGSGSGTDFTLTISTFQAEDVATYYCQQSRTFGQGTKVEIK
OUT: 4.14
